Reported IC50 values for a set of molecules
testedSystem: Steroidogenic factor 1 (Homo sapiens)
protocolNotes: blockers of SF-1 LBD reporter transcription – cell-based, CHO-K1, Gal4-SF-1 LBD, luciferase luminescence, dose response (AID 600)

- molecule: "CCOC(=O)c1cnc(-n2nc(C)cc2C)nc1NC(C)c1ccccc1 (stereo not given)"
  IC50: "6.88 µM"
- molecule: "Cc1ccccc1NC(=O)N1CCCC(c2nc(-c3ccc(C(C)C)cc3)no2)C1 (stereo not given)"
  IC50: "7.13 µM"
- molecule: "O=C1c2ccccc2C(=O)C1c1ccc2ccccc2n1"
  IC50: "6.72 µM"
- molecule: "CCOC(=O)N1CCN(C(=O)C2CCN(c3ncnc4c3sc3cccc(F)c34)CC2)CC1"
  IC50: "7.93 µM"
- molecule: "O=C(CSc1nnnn1-c1ccccc1)Nc1nsc(-c2ccc(Cl)cc2)n1 [MLS000085595]"
  IC50: "4.9 µM"

Observed IC50 on Steroidogenic factor 1 (Homo sapiens) for CS(=O)(=O)c1nc(-c2ccccc2)cc(C(F)(F)F)n1 [MLS000044644] , please.
5.09 µM

Observed IC50 on Steroidogenic factor 1 (Homo sapiens) for "COc1cc(NS(=O)(=O)c2ccc(C)cc2C)cc(OC)c1OC" , please.
> 11 µM

Observed IC50 on Steroidogenic factor 1 (Homo sapiens) for "Cn1cc(C=Nn2cnc3scc(-c4ccc(Cl)cc4)c3c2=O)c2ccccc21" , please.
9.07 µM

Observed IC50 on Steroidogenic factor 1 (Homo sapiens) for "c1csc(CNc2ncnc3sccc23)c1" , please.
3.49 µM

Observed IC50 on Steroidogenic factor 1 (Homo sapiens) for "CCc1ccc2oc(-c3cc(N)ccc3O)nc2c1" , please.
> 3.67 µM

---

testedSystem: UniProt Q13285
protocolNotes: blockers of SF-1 LBD reporter transcription – cell-based, CHO-K1, Gal4-SF-1 LBD, luciferase luminescence, dose response (AID 600)
Reported IC50 values for a set of compounds

Record excerpt, results attached:
- compound: "COc1ccc(C(NC(C)=O)c2ccc3cccnc3c2O)c(OC)c1 (stereo not drawn)"
  value: "> 3.67 µM"
- compound: "COc1ccc(OC)c(Nc2nc(-c3ccc(O)c(O)c3)cs2)c1"
  value: "> 3.67 µM"

Please report the recorded IC50 for "CCCCOc1ccccc1NC(=O)Cn1c(-c2nonc2N)nc2ccccc21" .
> 3.67 µM

---

testedSystem: Steroidogenic factor 1 (Homo sapiens, UniProt Q13285)
Sequence (Q13285 whole entry, the tested form may be a part): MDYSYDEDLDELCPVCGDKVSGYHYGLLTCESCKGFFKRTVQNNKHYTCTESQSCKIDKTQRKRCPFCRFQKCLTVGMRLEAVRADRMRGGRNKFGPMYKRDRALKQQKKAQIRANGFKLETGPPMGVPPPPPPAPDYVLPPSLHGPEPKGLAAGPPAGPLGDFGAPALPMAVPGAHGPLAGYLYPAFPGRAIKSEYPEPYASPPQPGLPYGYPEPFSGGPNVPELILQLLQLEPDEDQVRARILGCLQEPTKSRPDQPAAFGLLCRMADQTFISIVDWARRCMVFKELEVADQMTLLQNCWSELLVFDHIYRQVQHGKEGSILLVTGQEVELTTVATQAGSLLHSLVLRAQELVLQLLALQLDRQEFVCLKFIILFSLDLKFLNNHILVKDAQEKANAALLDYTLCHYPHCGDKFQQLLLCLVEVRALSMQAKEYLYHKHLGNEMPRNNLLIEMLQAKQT
protocolNotes: blockers of SF-1 LBD reporter transcription – cell-based, CHO-K1, Gal4-SF-1 LBD, luciferase luminescence, dose response (AID 600)
Reported pIC50 values for a set of compounds
Scale: negative log10 of molar concentration, which is what pIC50 denotes.

Record excerpt, results attached:
- compound: "CC1(C)CC(=O)C2=C(C1)Oc1nc3ccccc3cc1C2C(C#N)C#N (configuration not stated)"
  value: 5.12
- compound: "CC1CCN(c2nc3ccc(C(=O)O)cc3s2)CC1"
  value: 5.65
- compound: "COc1cccc(N2CCN(c3ncnc4c3[nH]c3ccc(F)cc34)CC2C)c1 (configuration not stated)"
  value: 5.68
- compound: "O=C(Nc1ccc(N2CCOCC2)cc1)c1cnsn1"
  value: 5.39
- compound: "CC(=O)Nc1ccccc1OCC(=O)c1cc(C)n(Cc2cccs2)c1C"
  value: 5.56
- compound: "Cc1ccnc(NC(=O)CCCOc2cc(=O)n(C)c3ccccc23)c1"
  value: 5.21

Please report the recorded pIC50 for "COc1ccc(-c2nc(CSCC(=O)NCc3ccco3)c(C)o2)cc1" .
5.23

Please report the recorded pIC50 for "Cc1ccc(-c2nc(-c3ccccc3)no2)c(Cl)c1" .
5.33

Please report the recorded pIC50 for "COc1ccc(/N=c2\scc(-c3ccc(S(=O)(=O)N4CCOCC4)cc3)n2CCCO)cc1" .
4.66

Please report the recorded pIC50 for "[O-][N+]1=c2ccc(Nc3ccccc3)cc2=NC12CCCCC2" .
5.19

Please report the recorded pIC50 for "CCOc1ccc(-c2cc(CCCC(=O)NCCc3ccc(OC)c(OC)c3OC)no2)cc1" .
5.12
